Please respond with reported pKi for every item in the list.
biological target: Human immunodeficiency virus type 1 protease (Human immunodeficiency virus 1, UniProt Q72874)
Scale explanation: pKi corresponds to minus log10 of a concentration expressed in moles per litre.

The recorded pKi for entry `COc1ccc(CN2C(=O)N(Cc3ccc(OC)cc3)[C@H](Cc3ccccc3)[C@H](O)[C@@H](O)[C@H]2Cc2ccccc2)cc1` equals 6.80

The recorded pKi for entry `O=C1N(Cc2ccccn2)[C@H](Cc2ccccc2)[C@H](O)[C@@H](O)[C@@H](Cc2ccccc2)N1Cc1ccccn1` equals 6.84

The recorded pKi for entry `CC(C)CCN1C(=O)N(CCC(C)C)[C@H](Cc2ccccc2)[C@H](O)[C@@H](O)[C@H]1Cc1ccccc1` equals 7.92

The recorded pKi for entry `CCCCCCCN1C(=O)N(CCCCCCC)[C@H](Cc2ccccc2)[C@H](O)[C@@H](O)[C@H]1Cc1ccccc1` equals 6.59

The recorded pKi for entry `O=C1N(Cc2ccccc2)[C@H](Cc2ccccc2)[C@H](O)[C@@H](O)[C@@H](Cc2ccccc2)N1Cc1ccc2ccccc2c1` equals 8.64

The recorded pKi for entry `CC(C)CN1C(=O)N(CC(C)C)[C@H](Cc2ccccc2)[C@H](O)[C@@H](O)[C@H]1Cc1ccccc1` equals 7.31

The recorded pKi for entry `O=C1N(Cc2ccc(Br)cc2)[C@H](Cc2ccccc2)[C@H](O)[C@@H](O)[C@@H](Cc2ccccc2)N1Cc1ccc(Br)cc1` equals 7.57

* * *

test: Bioavailability as maximal plasma concentration in rats; format: ADME, organism-based; details: rat
PARAMETER: Cmax (nM)
Respond numerically; units are nM and should not be typed.

The recorded Cmax for entry `O=C1N(Cc2cccc(O)c2)[C@H](Cc2ccccc2)[C@H](O)[C@@H](O)[C@@H](Cc2ccccc2)N1Cc1ccc2ccccc2c1` equals 960

* * *

experiment: Bioavailability in rat; format: ADME, organism-based; details: in vivo
Please enter true (1) where bioavailability is greater than or equal to 50%, and false (0) where it is lower.

Q) Item `O=C1N(Cc2cccc(CO)c2)[C@H](Cc2ccccc2)[C@H](O)[C@@H](O)[C@@H](Cc2ccccc2)N1Cc1cccc(CO)c1` with bioavailability of 50% or above?
A) false (0)

Q) Item O=C1N(Cc2ccc(CO)cc2)[C@H](Cc2ccccc2)[C@H](O)[C@@H](O)[C@@H](Cc2ccccc2)N1Cc1ccc(CO)cc1 [DMP-323] with bioavailability of 50% or above?
A) false (0)

Q) Item `O=C1N(Cc2cccc(O)c2)[C@H](Cc2ccccc2)[C@H](O)[C@@H](O)[C@@H](Cc2ccccc2)N1Cc1cccc(O)c1` with bioavailability of 50% or above?
A) false (0)

Q) Item `O=C1N(Cc2ccc(O)cc2)[C@H](Cc2ccccc2)[C@H](O)[C@@H](O)[C@@H](Cc2ccccc2)N1Cc1ccc(O)cc1` with bioavailability of 50% or above?
A) false (0)

Q) Item `O=C1N(CC2CC2)[C@H](Cc2ccccc2)[C@H](O)[C@@H](O)[C@@H](Cc2ccccc2)N1CC1CC1` with bioavailability of 50% or above?
A) true (1)

* * *

Please respond with reported Cmax for every item in the list.
assay: Bioavailability as maximal plasma concentration in rats; type: ADME, organism-based; conditions: rat
Respond numerically; units are nM and should not be typed.

The recorded Cmax for entry `O=C1N(Cc2cccc(O)c2)[C@H](Cc2ccccc2)[C@H](O)[C@@H](O)[C@@H](Cc2ccccc2)N1Cc1cccc(O)c1` equals 810

The recorded Cmax for entry `O=C1N(CC2CCCC2)[C@H](Cc2ccccc2)[C@H](O)[C@@H](O)[C@@H](Cc2ccccc2)N1CC1CCCC1` equals 200

The recorded Cmax for entry `O=C1N(CC2CC2)[C@H](Cc2ccccc2)[C@H](O)[C@@H](O)[C@@H](Cc2ccccc2)N1CC1CC1` equals 4300

The recorded Cmax for entry `C=CCN1C(=O)N(CC=C)[C@H](Cc2ccccc2)[C@H](O)[C@@H](O)[C@H]1Cc1ccccc1` equals 2700
